- system: MC4-R (Homo sapiens)
- Sequence (P32245 whole entry): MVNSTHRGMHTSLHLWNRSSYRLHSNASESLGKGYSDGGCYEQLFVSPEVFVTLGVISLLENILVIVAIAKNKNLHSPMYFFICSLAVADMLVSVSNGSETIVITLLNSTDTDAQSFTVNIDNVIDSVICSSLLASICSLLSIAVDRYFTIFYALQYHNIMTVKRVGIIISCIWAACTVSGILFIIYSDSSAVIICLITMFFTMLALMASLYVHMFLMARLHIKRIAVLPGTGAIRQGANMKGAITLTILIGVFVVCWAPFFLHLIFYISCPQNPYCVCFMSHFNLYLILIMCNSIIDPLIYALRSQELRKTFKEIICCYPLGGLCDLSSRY
- test-summary: Competitive inhibition binding assay, 125I-NDP-α-MSH, MC4-R
- Design: expressed in transfected cells
- conditions-used: 1 μM compound; inhibition of 125I-NDP-α-MSH binding; mean of triplicates; results less than 0% reported as 0%
What Inhibition at 1 μM MC4-R was measured for each of the following?
Numbers only, in %.

Measured Inhibition at 1 μM MC4-R of NCCCNC(=O)[C@@H]1C[C@@H](OCc2ccccc2)CN1C(=O)[C@@H](Cc1ccccc1)NC(=O)[C@H](N)Cc1ccc2ccccc2c1 [Example 158] : 0

Measured Inhibition at 1 μM MC4-R of NCCCC[C@H]1C(=O)N2C(CC[C@@H]2COc2ccc3ccccc3c2)N1C(=O)[C@@H](Cc1ccccc1Cl)NC(=O)[C@H]1Cc2ccccc2CN1 (stereo partly drawn) [Example 93] : 79

Measured Inhibition at 1 μM MC4-R of NCCCNC(=O)[C@@H]1C[C@@H](OCc2ccccc2)CN1C(=O)[C@@H](Cc1ccccc1)NC(=O)[C@H](Cc1cnc[nH]1)NC(=O)Cc1ccc2ccccc2c1 [Example 141] : 0

Measured Inhibition at 1 μM MC4-R of NCCCNC(=O)[C@@H]1C[C@@H](OCc2ccccc2)CN1C(=O)[C@@H](Cc1ccccc1)NC(=O)[C@H](N)Cc1cccc2ccccc12 [Example 166] : 8

Measured Inhibition at 1 μM MC4-R of NCCCC[C@H]1C(=O)N2C(CC[C@@H]2COc2ccc3ccccc3c2)N1C(=O)[C@@H](Cc1ccccc1Cl)NC(=O)[C@@H](N)COCc1ccccc1 (stereo partly drawn) [Example 82] : 60

Measured Inhibition at 1 μM MC4-R of CCCCCCC(=O)NC(COCc1ccccc1)C(=O)NC(Cc1ccc2ccccc2c1)C(=O)N1CC2CC(Oc3ccc4ccccc4c3)CN2C(=O)C1CCCCN (stereo not drawn) [Example 178] : 0

Measured Inhibition at 1 μM MC4-R of NCCC[C@H]1CN(CCc2ccc3ccccc3c2)CCN1C(=O)[C@H](N)Cc1ccc(Cl)cc1Cl [Example 130] : 81

Measured Inhibition at 1 μM MC4-R of CCCCCCC(=O)N[C@@H](COCc1ccccc1)C(=O)N[C@H](Cc1ccc(Cl)cc1)C(=O)N1CCN(CCc2c[nH]c3ccccc23)C(=O)[C@@H]1CCCCN [Example 78] : 99

List Inhibition at 1 μM MC4-R for every entry below, keeping the order given.
1. N[C@H](Cc1ccc(Cl)cc1Cl)C(=O)N1CCN(CCc2ccc3ccccc3c2)C(=O)[C@@H]1CCNC1=NCCN1 [Example 55]
2. CCCCCCC(=O)N[C@@H](COCc1ccccc1)C(=O)N[C@H](Cc1ccc2ccccc2c1)C(=O)N1C[C@@H](Oc2ccc3ccccc3c2)C[C@H]1C(=O)NCCCN [Example 138]
3. N=C(N)NCCC[C@H]1C(=O)N(CCc2c[nH]c3ccccc23)CCN1C(=O)[C@@H](Cc1ccc(Cl)cc1)NC(=O)[C@@H](N)COCc1ccc(Cl)cc1 [Example 15]
4. N=C(N)NCCC[C@H]1C(=O)N(CCc2c[nH]c3ccccc23)CCN1C(=O)[C@H](N)Cc1ccc(Cl)cc1Cl [Example 124]

**A:**
68
0
94
96

###

What Inhibition at 1 μM MC1-R was measured for each of the following?
- system: MC1-R (B-16 mouse melanoma cells) (Mus musculus)
- Construct: B-16 mouse melanoma cells (containing MC1-R); endogenous in cells; host or cells: B-16 mouse melanoma cells
- Sequence (Q01727 whole entry): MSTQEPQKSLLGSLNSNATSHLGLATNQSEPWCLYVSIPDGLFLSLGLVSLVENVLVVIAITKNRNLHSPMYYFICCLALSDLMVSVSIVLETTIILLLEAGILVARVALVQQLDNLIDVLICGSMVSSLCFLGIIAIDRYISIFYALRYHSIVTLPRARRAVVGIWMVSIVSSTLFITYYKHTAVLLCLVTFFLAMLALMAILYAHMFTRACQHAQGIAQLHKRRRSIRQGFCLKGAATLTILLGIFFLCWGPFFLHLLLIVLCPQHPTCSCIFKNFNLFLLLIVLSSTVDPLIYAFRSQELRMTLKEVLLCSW
- test-summary: Competitive inhibition binding assay, 125I-NDP-α-MSH, MC1-R
- conditions-used: 1 μM compound; inhibition of 125I-NDP-α-MSH binding; mean of triplicates; results less than 0% reported as 0%
Non-standard residues stand in square brackets, D forms with d. Residues, ends and D or L forms follow the SMILES beside them. *: point of attachment. Hyp = O=C(O)[C@@H]1C[C@@H](O)CN1; Nle = CCCC[C@H](N)C(=O)O; NH(CH2)3NH2 = NCCCN*; Bn = c1ccc(C*)cc1
Answers are plain numbers, in %.

Previously resolved entries follow.
Measured Inhibition at 1 μM MC1-R of NCCCNC(=O)[C@@H]1C[C@@H](OCc2ccccc2)CN1C(=O)[C@@H](Cc1ccccc1)NC(=O)[C@H](Cc1cnc[nH]1)NC(=O)Cc1ccc2ccccc2c1 [Example 141] : 84

Measured Inhibition at 1 μM MC1-R of CCCCCCC(=O)N[C@@H](COCc1ccccc1)C(=O)N[C@H](Cc1ccc(Cl)cc1)C(=O)N1CCN(CCc2c[nH]c3ccccc23)C(=O)[C@@H]1CCCCN [Example 78] : 96

Measured Inhibition at 1 μM MC1-R of NCCCC[C@H]1C(=O)N(CCc2ccccc2)CCN1C(=O)[C@@H](Cc1ccc(Cl)cc1)NC(=O)[C@@H](N)COCc1ccccc1 [Example 12] : 46

Measured Inhibition at 1 μM MC1-R of N=C(N)NCCC[C@H]1C(=O)N(CCc2ccc3ccccc3c2)CCN1C(=O)[C@H](N)Cc1ccc(Cl)cc1Cl [Example 51] : 22

Measured Inhibition at 1 μM MC1-R of NCCCNC(=O)[C@@H]1C[C@@H](OCc2ccccc2)CN1C(=O)[C@@H](Cc1ccccc1)NC(=O)[C@H](N)Cc1cccc2ccccc12 [Example 166] : 0

List Inhibition at 1 μM MC1-R for every entry below, keeping the order given.
1. NCCCC[C@H]1C(=O)N2C(CC[C@@H]2COc2ccc3ccccc3c2)N1C(=O)[C@@H](Cc1ccccc1Cl)NC(=O)[C@@H]1CC[C@H](c2ccccc2)N1 (stereo partly drawn) [Example 85]
2. CCCC[C@H](NC(C)=O)C(=O)N[C@@H](C)C(=O)N[C@@H](Cc1cnc[nH]1)C(=O)N[C@H](Cc1ccccc1)C(=O)N1C[C@H](OCc2ccccc2)C[C@H]1C(=O)NCCCN [Example 133] (Ac-[Nle]AH[dF][Hyp](Bn)-{NH(CH2)3NH2})
3. NCCC[C@H]1C(=O)N(CCc2ccc3ccccc3c2)CCN1C(=O)[C@@H](Cc1ccc(Cl)cc1Cl)NC(=O)[C@@H](N)COCc1ccccc1 [Example 52]
4. N=C(N)NCCC[C@H]1C(=O)N(CCc2c[nH]c3ccccc23)CCN1C(=O)[C@@H](Cc1ccc(Cl)cc1)NC(=O)[C@@H](N)COCc1ccc(Cl)cc1 [Example 15]
5. N=C(N)NCCCC[C@H]1C(=O)N(CCc2ccc3ccccc3c2)CCN1C(=O)[C@H](N)Cc1ccc2ccccc2c1 [Example 71]
6. CCNC(=N)NCCC[C@H]1C(=O)N(CCc2ccc3ccccc3c2)CCN1C(=O)[C@H](N)Cc1ccc(Cl)cc1Cl [Example 73]

**A:**
[4, 91, 36, 81, 60, 14]

List Inhibition at 1 μM MC1-R for every entry below, keeping the order given.
1. NCCCC[C@H]1C(=O)N(CCc2ccc3ccccc3c2)CCN1C(=O)[C@@H](Cc1ccc(Cl)cc1Cl)NC(=O)c1cccc(Oc2ccccc2)c1 [Example 38]
2. Cc1ccc(CCN2CCN(C(=O)[C@H](N)Cc3ccc(Cl)cc3)[C@@H](CCCNC(=N)N)C2=O)cc1 [Example 127]
3. NCCC[C@H]1C(=O)N(CCc2ccc3ccccc3c2)CCN1C(=O)[C@H](N)Cc1ccc(Cl)cc1Cl [Example 49]

**A:**
3
9
2

List Inhibition at 1 μM MC1-R for every entry below, keeping the order given.
1. CC(=O)NCCCC[C@H]1C(=O)N(CCc2ccc3ccccc3c2)CCN1C(=O)[C@H](N)Cc1ccc(Cl)cc1Cl [Example 65]
2. N=C(N)NCCC[C@H]1C(=O)N(CCc2ccc3ccccc3c2)CCN1C(=O)[C@@H](Cc1ccc(Cl)cc1Cl)NC(=O)[C@@H](N)COCc1ccccc1 [Example 53]
3. NC(=O)NCCC[C@H]1C(=O)N(CCc2ccc3ccccc3c2)CCN1C(=O)[C@@H](Cc1ccc(Cl)cc1Cl)NC(=O)[C@@H](N)COCc1ccccc1 [Example 44]
4. NCCCNC(=O)C1CC(OCc2ccccc2)CN1C(=O)C(Cc1ccccc1)NC(=O)C1NCCc2ccccc21 (stereo not drawn) [Example 159]

**A:**
[17, 81, 8, 0]

List Inhibition at 1 μM MC1-R for every entry below, keeping the order given.
1. NCCCNC(=O)[C@@H]1C[C@@H](OCc2ccccc2)CN1C(=O)[C@@H](Cc1ccccc1)NC(=O)[C@H](N)C1Cc2ccccc2C1 [Example 175]
2. NCCCC[C@H]1C(=O)N2C(CC[C@@H]2COc2ccc3ccccc3c2)N1C(=O)[C@@H](Cc1ccccc1Cl)NC(=O)[C@H]1Cc2ccccc2CN1 (stereo partly drawn) [Example 93]
3. N=C(N)NCCC[C@H]1C(=O)N(CCc2c[nH]c3ccccc23)CCN1C(=O)[C@@H](Cc1ccccc1Cl)NC(=O)[C@@H]1Cc2ccccc2CN1 [Example 18]
4. NCCCC[C@H]1C(=O)N2C(CC[C@@H]2COc2ccc3c(c2)CCCC3)N1C(=O)[C@@H](Cc1ccc(Cl)cc1)NC(=O)[C@@H]1Cc2ccccc2CN1 (stereo partly drawn) [Example 108]
5. CCCNC(=N)NCCCC1C(=O)N(CCc2ccc3ccccc3c2)CCN1C(=O)C(N)Cc1ccc(Cl)cc1Cl (stereo not drawn) [Example 74]
6. N=C(N)NCCC[C@H]1C(=O)N2C(CC[C@@H]2COc2ccc3ccccc3c2)N1C(=O)[C@@H](Cc1ccc(Cl)cc1Cl)NC(=O)[C@@H]1Cc2ccccc2CN1 (stereo partly drawn) [Example 112]

**A:**
3
47
95
96
13
75
